test: yeast display, Sf9 membrane polyspecificity reagent, FACS + sequencing; frameworks hold sequencing errors
readout_name: polyreactivity (PSR sort gate)

QVQLVESGGGLVQAGGSLRLSCAASGSTFSYYAMGWYRQAPGKERELVAAITYSVGSTYYADSVKGRFTISRDNAKNTVYLQMNSLKPEDTAVYYCNKRYYYSRANYPYDYWGQGTQVTVSS; low polyreactivity
QGQLVESGGGLFQAGGSLRLSCAASGRIFRRYAMGWDIQAPGKERELVAAISRGGSTYYADSVKGRFTISRDNAKNTVYLQMNSLKPEDTAVYYCAAYSQSTSFGGYDSWGQGTQVTVSS; high polyreactivity
QVQLVESGGGLVQAGGSLRLSCAASGRIFFAYAMGWYRQAPGKERELVAAIRFSGGTTYYADSVKGRLTFSRDNAKNTVYLQMNSLKQEDTAVYYFAAGRRRSSSGYGYWGKGTQVTVSS; high polyreactivity
QVQLVESGGGLVQAGGSLRLSCAASGNTLTYNVMGWYRQAPGKDWDLVAAISGRGGRTYYADSVKGRFTISRDNAKNTVYLQMNSLKPEDTAVYYCAATSRNGESGGFYYWGQGTQVTVSS; high polyreactivity
QVQLVESGGGLVQAGGSLRLSCAASGRIFNAYAMGWYRQAPGKERELVAAISRSGGRTYYADSVKGRFTISRDNAKNNVYLQMNILKPEDTAVYYCAKDFFEHSPVSHTYSSSKYDYWGQGTQVTVSS; low polyreactivity
QVQLVESGGGLVQAGGSLRLSCAASGSTFRQNAMGWYRQAPGKERELVAAITYRVASTYYADSVKGRFTISRDNAKNTVYLQMNSLKPEDSAVYYCAAYKRRSNGRYWTYDYWGQGSQVTVSS; high polyreactivity

Would you mind listing polyreactivity (PSR sort gate) for each of the following sequences?
1. QVQLVESGAGLVQAGGSLRLSCAASGSIFRKYGMGLYRQAPGKDRELVATITSSGGSTYYADSVKGRFRISRDNAKNTVYVQMNSLIPEDTAVYYCAARWTYSFHWFSRYDYWGPGTQVTVSS
2. QVQLVESGGGLVQAGGSLRLSCAASGSTFRGYTMGRNRQAPGKERELVAAISFRGTSTYYADSVKGRFTISRDNAKITVYLQMNSLIPEDTAVDYCAAVYTWGPGYGHDYWGQGTQVTVSS
3. QVQLVESGGGLVQAGGRLSLSCAASGSIFSIYAMGWYRPSPGKERELVSGIRSTVSTNYADSVKGRFTISRDNAKNTVYLQMNSLKPEDTAVYYCATGTPTAPGNYWGQGTQVTVSS
4. QVQLVESGGGLVQAGGSLRLSCAASGITFYYYAMGWYRQAPGKERELVAAIDTDGSTYYADSVKGRFTISRDNAKNTVYLQMNSLKPEDTAVYYCAAEIEYYPYSGYIYDYWGQGTQVTVSS
5. EEELVESGGGLVQAGGSLRLSCAASGIIFGYYAMGWYRQAPGKERELVAAITRSGSSTYYADSVKGRFTISRDNAKNTVYLQMNSLKPEDTAVVSCAADNFYQAYGYWGQGTQVTVSS

Result:
["high polyreactivity", "low polyreactivity", "low polyreactivity", "high polyreactivity", "low polyreactivity"]

* * *

test: yeast display, Sf9 membrane polyspecificity reagent, FACS + sequencing; frameworks hold sequencing errors
readout_name: polyreactivity (PSR sort gate)

Some sequences with known polyreactivity (PSR sort gate) results, for comparison:
QVQIVESGGGLVQAGGSLRLSSAAYGSTFAIYTMGWSRQAPGKERELVATISYSGGGTYYADSVKGRFTISRDNAKNTVYLQMNSLKPEDTAVYYCAAGRRTYYGTYYYWGQGTQVNVSS; high polyreactivity
QVQLVESGGGLVQAGGILRLSCAASGFTFDFNAMGWYRQAPGKERELVAAISSGASTNYADSVKGRYTISRDNAKNTVYLQMNRVIPLDSEVYYCAVYFYGSSTRSYQARFDYWGQGTQVTVSS; high polyreactivity
QVHLVESGGGLVQAGGSLRLSCAASGSIFSVYTRGWYRQAPGKERELVAAISTGGGSTYYADSVKGRFTISRDNAKNTVYLQMNSLKPEDTAVYYCATDYGWAPSYWYDSCGQGTQVTVSS; low polyreactivity
QVQLVESGGGLVQAGGSLRLSCAASGFIFDVYAMGWYRQAPGKERELVAAITSGDGTNYADSVKGRFTISRDNAKNTVYLQMNSLKPEDTAVYYCAADYGVTYRGIIFSYWGQGTQVTVSS; low polyreactivity

Problem: Entry under review: "QVQLVESGGGLVQAGGSLRLSCAASGSTFFQYAMGWYRPAPGKERELVAAITTSGGRTYYADSVKGRFTISRDNAKNTVYLQMNSLKPEDTAVYYCAGYNYWGQGTQVTVSS" . Reported polyreactivity (PSR sort gate)?
Result: high polyreactivity
